test-system: T1, full length recombinant human 2N4R tau (amino acids 1-441) (human, UniProt P10636 1-758)
T1 construct: Bought (rPeptide); recombinant, non-phosphorylated; also called recombinant tau
T1 sequence (P10636 other isoform, or with tags, fused parts or gaps limits assumed): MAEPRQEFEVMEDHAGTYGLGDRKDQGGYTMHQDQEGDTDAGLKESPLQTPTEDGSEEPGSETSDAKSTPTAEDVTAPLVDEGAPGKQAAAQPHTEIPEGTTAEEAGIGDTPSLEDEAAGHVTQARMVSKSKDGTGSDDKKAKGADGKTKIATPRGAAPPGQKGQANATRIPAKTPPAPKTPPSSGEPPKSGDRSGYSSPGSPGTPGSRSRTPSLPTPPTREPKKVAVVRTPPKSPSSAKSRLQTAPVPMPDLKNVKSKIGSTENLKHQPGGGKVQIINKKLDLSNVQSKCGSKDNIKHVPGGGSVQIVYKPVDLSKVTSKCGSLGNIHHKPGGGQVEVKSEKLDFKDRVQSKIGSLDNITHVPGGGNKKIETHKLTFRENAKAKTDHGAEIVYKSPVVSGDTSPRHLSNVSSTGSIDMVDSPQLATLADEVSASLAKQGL
method-description: SPR Biacore SCK, IgG on Protein A, tau analyte
// label = criterion met if kon is not less than 40000 M⁻¹ s⁻¹, otherwise criterion not met

Please check the record Clone 36 (VH6Vκ4), humanised variant of clone #28, human IgG1 (antibody, V domains shown, also called VH6VK4) VH: QVQLQESGPGLVKPSETLSLTCTVSGFSLNNYDMSWVRQAPGKGLEWIGTVSTTYRRYYADSVKGRFTISRDNSKNTLDLQMTSLTAEDTATYFCAASGIWGRGTLVTVSS VL: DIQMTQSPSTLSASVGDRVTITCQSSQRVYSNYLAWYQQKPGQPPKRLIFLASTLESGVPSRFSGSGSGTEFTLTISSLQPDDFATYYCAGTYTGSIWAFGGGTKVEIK and state if its kon is at or above 40000 M⁻¹ s⁻¹.
criterion not met

Please check the record Clone 14 (VH1Vκ1), humanised variant of clone #28, human IgG1 (antibody, V domains shown, also called VH1VK1) VH: QSLQESGGGLVKPSETLSLTCTVSGFSLNNYDMSWVRQAPGKGLEWIGTVSTTYRRYYASWAKGRFTISKTSSTTVDLKMTSLTAEDTATYFCAASGIWGRGTLVTVSS VL: AQVLTQSTSPLSASVGDRVTITCQSSQRVYSNYLAWYQQKPGQPPKRLIFLASTLESGVPSRFSGSGSGTEFTLTISSLQCDDFATYYCAGTYTGSIWAFGGGTEVVIK and state if its kon is at or above 40000 M⁻¹ s⁻¹.
criterion met

Please check the record Clone 19 (VH2Vκ2), humanised variant of clone #28, human IgG1 (antibody, V domains shown, also called VH2VK2) VH: QSLQESGPGLVKPSETLSLTCTVSGFSLNNYDMSWVRQAPGKGLEWIGTVSTTYRRYYASWAKGRFTISKTSSTTVDLQMTSLTAEDTATYFCAASGIWGRGTLVTVSS VL: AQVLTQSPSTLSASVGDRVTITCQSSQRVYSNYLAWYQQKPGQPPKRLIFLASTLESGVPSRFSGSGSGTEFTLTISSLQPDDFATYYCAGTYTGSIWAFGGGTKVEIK and state if its kon is at or above 40000 M⁻¹ s⁻¹.
criterion met

Please check the record Clone 37 (VH6Vκ5), humanised variant of clone #28, human IgG1 (antibody, V domains shown, also called VH6VK5) VH: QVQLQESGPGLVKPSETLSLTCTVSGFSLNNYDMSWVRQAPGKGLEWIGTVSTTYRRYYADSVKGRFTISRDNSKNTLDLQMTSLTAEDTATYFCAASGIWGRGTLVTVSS VL: DIQMTQSPSTLSASVGDRVTITCQSSQRVSSSYLAWYQQKPGQPPKRLIFLASTLESGVPSRFSGSGSGTEFTLTISSLQPDDFATYYCAGTYTGSIWAFGGGTKVEIK and state if its kon is at or above 40000 M⁻¹ s⁻¹.
criterion met

Please check the record Clone 31 (VH5Vκ2), humanised variant of clone #28, human IgG1 (antibody, V domains shown, also called VH5VK2; VH5Vk2) VH: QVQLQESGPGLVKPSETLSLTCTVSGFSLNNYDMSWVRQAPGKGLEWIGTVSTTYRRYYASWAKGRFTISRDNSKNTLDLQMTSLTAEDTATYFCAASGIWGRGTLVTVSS VL: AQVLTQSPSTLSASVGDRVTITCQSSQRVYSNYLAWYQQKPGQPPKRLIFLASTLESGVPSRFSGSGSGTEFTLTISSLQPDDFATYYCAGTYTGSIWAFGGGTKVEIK and state if its kon is at or above 40000 M⁻¹ s⁻¹.
criterion not met
